Target: recombinant human LTA4 hydrolase (rhLTA4H) (Homo sapiens, UniProt P09960)
Construct: made in house; host or cells: Spodoptera frugiperda (Sf-9) cells, recombinant baculovirus (pFastBac1)
Sequence (P09960 1-611): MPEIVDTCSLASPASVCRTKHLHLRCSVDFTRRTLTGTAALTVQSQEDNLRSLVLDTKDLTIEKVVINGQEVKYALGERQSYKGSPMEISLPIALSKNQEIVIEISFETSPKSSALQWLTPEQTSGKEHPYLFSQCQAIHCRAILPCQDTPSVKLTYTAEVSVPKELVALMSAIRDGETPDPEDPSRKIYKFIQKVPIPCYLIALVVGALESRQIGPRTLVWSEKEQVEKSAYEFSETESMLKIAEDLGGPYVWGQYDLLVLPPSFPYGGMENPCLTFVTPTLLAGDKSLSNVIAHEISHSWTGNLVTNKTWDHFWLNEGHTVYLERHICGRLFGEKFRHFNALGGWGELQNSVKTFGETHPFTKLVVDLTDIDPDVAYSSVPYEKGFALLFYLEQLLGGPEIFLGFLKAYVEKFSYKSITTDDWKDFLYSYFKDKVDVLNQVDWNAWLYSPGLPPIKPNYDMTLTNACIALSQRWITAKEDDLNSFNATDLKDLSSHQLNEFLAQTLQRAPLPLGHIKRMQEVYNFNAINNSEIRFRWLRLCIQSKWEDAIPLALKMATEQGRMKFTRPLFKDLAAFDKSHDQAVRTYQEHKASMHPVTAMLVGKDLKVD
Experiment: Recombinant human LTA4 hydrolase assay for LTA4 hydrolase inhibitor activity
Type: biochemical
Conditions: rhLTA4H, LTA4 substrate, LTB4 by immunoassay; single determination or average; read-out: IC50
Response field label: string, one of TRUE (IC50 strictly below 200 nM) or FALSE.

Compound: Cc1ccnc2nc(Oc3ccc(OCCN4CC5CN(C(=O)C6CCC6)CC5C4)cc3)sc12 (stereo not drawn)
Answer label: TRUE
--
Compound: CN1CCN(Cc2ccc(Oc3nc4cccnc4s3)cc2)CCC1=O
Answer label: FALSE
--
Compound: CC(=O)N1C[C@@H]2C[C@H]1CN2Cc1ccc(Oc2nc3ncc(Cl)cc3s2)cc1
Answer label: TRUE
--
Compound: NC(=O)N1[C@@H]2CC[C@H]1CN(Cc1ccc(Oc3nc4ncccc4s3)cc1)C2
Answer label: TRUE
--
Compound: O=C1CCCN1C1CCN(CCc2ccc(Oc3nc4ncccc4s3)cc2)CC1
Answer label: TRUE

# ---- query compound ----
For this compound, is IC50 lower than 200 nM? c1cnc2nc(Oc3ccc(CCN4CCOCC4)cc3)sc2c1 TRUE

###

Biological target: recombinant human LTA4 hydrolase (rhLTA4H) (Homo sapiens)
Construct: made in house; host or cells: Spodoptera frugiperda (Sf-9) cells, recombinant baculovirus (pFastBac1)
Assay: Recombinant human LTA4 hydrolase assay for LTA4 hydrolase inhibitor activity
Type: biochemical
Details: rhLTA4H, LTA4 substrate, LTB4 by immunoassay; single determination or average; read-out: IC50
Exercise: state measured pIC50 for each of the compounds provided.
Give bare numbers, as −log10 of the molar value.

Check out these entries, answers already filled in.
Compound: NC(=O)N1C[C@H]2C[C@@H]1CN2Cc1ccc(Oc2nc3ncc(Cl)cc3s2)cc1
Tested system: recombinant human LTA4 hydrolase (rhLTA4H) (Homo sapiens)
pIC50: 7.14

Compound: OC[C@@H]1CCCN1Cc1ccc(Oc2nc3ncccc3s2)cc1
Tested system: recombinant human LTA4 hydrolase (rhLTA4H) (Homo sapiens)
pIC50: 8.62

Please look at the items below and tell me pIC50 for each one, in order.
1. CS(=O)(=O)N1C[C@H]2C[C@@H]1CN2CCOc1ccc(Oc2nc3ccncc3s2)cc1
2. NC(=O)N1C[C@H]2C[C@@H]1CN2Cc1ccc(Oc2nc3ncccc3s2)cc1
3. c1cnc2nc(Oc3ccc(CCN4CCCCC4)cc3)sc2c1

1: 6.44; 2: 8.70; 3: 8.52

Provide pIC50 values for the following items, in order.
1. OC1(c2cccc(C(F)(F)F)c2)CCN(CCOc2ccc(Oc3nc4nccnc4s3)cc2)CC1
2. NC(=O)N1C[C@H]2C[C@@H]1CN2CCc1ccc(Oc2nc3ncccc3s2)cc1
3. CC(=O)N1C[C@@H]2C[C@H]1CN2Cc1ccc(Oc2nc3ncc(C)cc3s2)cc1

1: 7.28; 2: 8.70; 3: 7.42

Need pIC50 for each of these compounds.
1. CC(=O)N1C[C@H]2CC[C@@H](C1)N2CCc1ccc(Oc2nc3ncccc3s2)cc1
2. NC(=O)C1CCN(CCc2ccc(Oc3nc4cccnc4s3)cc2)CC1
3. Cc1ccnc2nc(Oc3ccc(OCCN4CCN(C(=O)c5ccncc5)CC4)cc3)sc12
4. CC(=O)N[C@H]1C[C@H]2CC[C@@H](C1)N2Cc1ccc(Oc2nc3cccnc3s2)cc1
5. C[C@H](c1ccccc1)N(C)CCc1ccc(Oc2nc3ncccc3s2)cc1
6. NC(=O)N1CC2CN(CCc3ccc(Oc4nc5cccnc5s4)cc3)CC2C1 (stereo not shown)
7. O=C(O)C1CCN(CCc2ccc(Oc3nc4ncccc4s3)cc2)CC1
8. c1cnc2nc(Oc3ccc(OCCN4CCCC4)cc3)sc2c1

8.32
6.72
6.71
7.15
8.10
7.14
7.57
8.22

Would you mind giving pIC50 for every compound in the list below?
1. Clc1cnc2nc(Oc3ccc(CCN4CCC(N5CCCCC5)CC4)cc3)sc2c1
2. c1ccc2c(c1)CCCN2CCOc1ccc(Oc2nc3ncccc3s2)cc1
3. CS(=O)(=O)N1CC2CN(Cc3ccc(Oc4nc5ncc(Cl)cc5s4)cc3)CC2C1 (stereo not shown)
4. Cc1ccnc2nc(Oc3ccc(CN4CCC(C(N)=O)CC4)cc3)sc12
5. NC(=O)N1CC2CN(Cc3ccc(Oc4nc5ncccc5s4)cc3)CC2C1 (stereo not shown)
6. CC(=O)N[C@H]1C[C@H]2CC[C@@H](C1)N2Cc1ccc(Oc2nc3ncc(Cl)cc3s2)cc1

1: 6.25; 2: 6.51; 3: 7.30; 4: 7.18; 5: 8.15; 6: 8.52

###

Target: recombinant human LTA4 hydrolase (rhLTA4H) (Homo sapiens, UniProt P09960)
Construct: made in house; host or cells: Spodoptera frugiperda (Sf-9) cells, recombinant baculovirus (pFastBac1)
Assay: Recombinant human LTA4 hydrolase assay for LTA4 hydrolase inhibitor activity
Type: biochemical
Settings: rhLTA4H, LTA4 substrate, LTB4 by immunoassay; single determination or average; read-out: IC50
Assign classes using reported IC50 values and the ranges interval 1 (below 6 nM), interval 2 (6 nM to below 80 nM), interval 3 (80 nM or more), please.

Some solved entries appear below for comparison.
Molecule: CC(=O)N[C@H]1C[C@H]2CC[C@@H](C1)N2CCc1ccc(Oc2nc3ncccc3s2)cc1
Answer label: interval 1

Molecule: c1cnc2nc(Oc3ccc(CN4CCC(N5CCOCC5)CC4)cc3)sc2c1
Answer label: interval 2

Molecule: c1ccc(CC2CCN(CCc3ccc(Oc4nc5ncccc5s4)cc3)CC2)cc1
Answer label: interval 2

Molecule: CCCN(Cc1ccc(Oc2nc3cnccc3s2)cc1)CC1CC1
Answer label: interval 3

# bin label for OC1(c2ccccc2)CCN(Cc2ccc(Oc3nc4ncccc4s3)cc2)CC1 interval 1

Assign a bin to c1ccc(OC2CCN(Cc3ccc(Oc4nc5ncccc5s4)cc3)CC2)nc1 interval 2

Into which category would you place c1cnc(N2CCN(Cc3ccc(Oc4nc5nccnc5s4)cc3)CC2)nc1 ? interval 3

###

System: ex vivo stimulated LTB4 production
Assay: Murine arachidonic acid-induced inflammation model: ex vivo stimulated LTB4 production (% Inh. LTB4)
Conditions: Mus musculus; female Balb/c mice, 30 mg/kg oral gavage; blood taken 3 h after arachidonic acid, ex vivo A23187 stimulation; number of determinations in parentheses
Exercise: for every item that follows, state its recorded inhibition at 30 mg/kg.
Numbers only, in %.

Example cases with answers are listed next.
Compound: NC(=O)N1C[C@H]2CC[C@@H](C1)N2CCc1ccc(Oc2nc3ncccc3s2)cc1 [Example 54]
Unit: %
inhibition at 30 mg/kg: 81.2

Compound: NC(=O)C1CCN(CCOc2ccc(Oc3nc4ncccc4s3)cc2)CC1 [Example 31]
Unit: %
inhibition at 30 mg/kg: 79.8

Compound: OC1(c2ccccc2)CCN(CCOc2ccc(Oc3nc4ncccc4s3)cc2)CC1 [Example 27]
Unit: %
inhibition at 30 mg/kg: 78.2

Compound: O=C1CCCN1C1CCN(Cc2ccc(Oc3nc4ncccc4s3)cc2)CC1 [Example 83]
Unit: %
inhibition at 30 mg/kg: 81

Compound: c1cnc2nc(Oc3ccc(CN4CCCCC4)cc3)sc2c1 [Example 85]
Unit: %
inhibition at 30 mg/kg: 66.8

Hi there! I need inhibition at 30 mg/kg for each item below, if you can.
1. CC(=O)N1C[C@H]2C[C@@H]1CN2CCOc1ccc(Oc2nc3ncccc3s2)cc1 [Example 267]
2. CC(=O)N1CC2CN(CCc3ccc(Oc4nc5ncccc5s4)cc3)CC2C1 (centres unmarked) [Example 73]
3. CC(=O)N[C@H]1C[C@H]2CC[C@@H](C1)N2Cc1ccc(Oc2nc3ncc(F)cc3s2)cc1 [Example 288]
4. CC(=O)N[C@H]1C[C@H]2CC[C@@H](C1)N2Cc1ccc(Oc2nc3ncc(Cl)cc3s2)cc1 [Example 287]
5. CC(=O)N1C[C@H]2C[C@@H]1CN2CCc1ccc(Oc2nc3ncccc3s2)cc1 [Example 79]
6. CC(=O)N[C@@H]1C[C@H]2CC[C@@H](C1)N2CCOc1ccc(Oc2nc3ncccc3s2)cc1 [Example 17]
7. CC(=O)N[C@H]1C[C@H]2CC[C@@H](C1)N2CCc1ccc(Oc2nc3cccnc3s2)cc1 [Example 52]
8. CC(=O)N1C[C@@H]2C[C@H]1CN2CCOc1ccc(Oc2nc3ncccc3s2)cc1 [Example 14]

83.4
85.7
61.7
89.8
86.7
81.5
78.3
84
